test system: HeLa Kyoto; assay: melting temperature (median over replicates), in situ; higher = more thermally stable; conditions: cell cycle stage: mitosis;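 further: HeLa Kyoto cells synchronized by double thymidine or nocodazole block, proteins quantified by TMT10plex mass spectrometry, three independent biological replicates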
Property: melting temperature (°C)
Write the answer as a number in °C, unit excluded.

Query MAAAAAGLGGGGAGPGPEAGDFLARYRLVSNKLKKRFLRKPNVAEAGEQFGQLGRELRAQECLPYAAWCQLAVARCQQALFHGPGEALALTEAARLFLRQERDARQRLVCPAAYGEPLQAAASALGAAVRLHLELGQPAAAAALCLELAAALRDLGQPAAAAGHFQRAAQLQLPQLPLAALQALGEAASCQLLARDYTGALAVFTRMQRLAREHGSHPVQSLPPPPPPAPQPGPGATPALPAALLPPNSGSAAPSPAALGAFSDVLVRCEVSRVLLLLLLQPPPAKLLPEHAQTLEKYSWEAFDSHGQESSGQLPEELFLLLQSLVMATHEKDTEAIKSLQVEMWPLLTAEQNHLLHLVLQETISPSGQGV [F8A1] yields melting temperature of 50.9

meta.source: the supplement of paper PMC5998384
